The origin of these recorded values is ChEMBL document CHEMBL5380855.

# study_system: HAT1/Rbap46 (Homo sapiens) (UniProt Q16576+O14929)
# Sequence (O14929 2-419 partner limits assumed): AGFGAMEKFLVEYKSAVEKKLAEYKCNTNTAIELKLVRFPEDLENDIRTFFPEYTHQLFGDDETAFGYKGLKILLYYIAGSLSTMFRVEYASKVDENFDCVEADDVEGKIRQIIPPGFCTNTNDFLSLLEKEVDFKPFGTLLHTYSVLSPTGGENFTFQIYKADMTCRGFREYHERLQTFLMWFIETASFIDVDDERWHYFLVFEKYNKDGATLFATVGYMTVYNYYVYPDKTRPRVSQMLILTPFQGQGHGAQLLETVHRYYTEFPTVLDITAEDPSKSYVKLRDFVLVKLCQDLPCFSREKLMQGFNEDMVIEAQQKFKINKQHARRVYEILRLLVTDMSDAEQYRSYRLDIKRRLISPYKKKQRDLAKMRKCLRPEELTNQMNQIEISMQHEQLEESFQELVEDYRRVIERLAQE
# Sequence (Q16576 2-425 limits assumed): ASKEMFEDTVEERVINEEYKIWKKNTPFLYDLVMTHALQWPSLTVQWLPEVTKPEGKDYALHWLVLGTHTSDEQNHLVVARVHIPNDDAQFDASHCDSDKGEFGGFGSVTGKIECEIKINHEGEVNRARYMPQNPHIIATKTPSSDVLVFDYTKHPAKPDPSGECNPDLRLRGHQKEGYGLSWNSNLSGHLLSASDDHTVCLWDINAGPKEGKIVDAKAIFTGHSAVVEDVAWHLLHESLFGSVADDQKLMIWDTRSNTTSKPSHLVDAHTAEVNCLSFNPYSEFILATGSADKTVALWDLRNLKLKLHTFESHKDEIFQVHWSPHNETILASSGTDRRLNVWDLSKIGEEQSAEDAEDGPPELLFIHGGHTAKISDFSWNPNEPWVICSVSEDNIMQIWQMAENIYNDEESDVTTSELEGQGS
# test_method_notes: Inhibition of C-terminal FLAG tagged full length human HAT1/Rbap46 transfected in HEK293F cells using histone H4 peptide as substrate and 4-pentynoyl-CoA as cofactor at 100 uM preincubated for 10 mins followed by 4-pentynoyl-CoA addition and measured after 1 hr by amplex red dye based fluorescence analysis relative to control
# Type: cell-based
# condition_context: time 70.0 min
observed_property: inhibition (%)
API: value field is a number in %; no unit string.

| smiles_representation | unit_label | number |
| --- | --- | --- |
| O=C1CN2Cc3c(ccc(Cl)c3Cl)N=C2N1 | % | -5 |

inhibition measured on CCc1cc2c(cc1Cl)nc1c(=O)[nH]c(=O)nc-1n2C[C@H](O)[C@H](O)[C@H](O)CO = 40

inhibition measured on CCc1cc2c(cc1Cl)nc1c(=O)[nH]c(=O)nc-1n2CCOc1ccc(C)cc1 = 20

inhibition measured on CCc1cc2c(cc1Cl)nc1c(=O)[nH]c(=O)nc-1n2CCOCC1CCN(C(=O)OC(C)(C)C)CC1 = 50

inhibition measured on CCc1cc2c(cc1Cl)nc1c(=O)[nH]c(=O)nc-1n2CCOCc1ccc(-c2ccccc2)cc1 = 17

inhibition measured on CCc1cc2c(cc1Cl)nc1c(=O)[nH]c(=O)nc-1n2CCCOc1ccc(C)cc1 = 12

inhibition measured on CCc1cc2c(cc1Cl)nc1c(=O)[nH]c(=O)nc-1n2CCOCc1ccc(C#N)cc1 = 26

inhibition measured on CCc1cc2c(cc1Cl)nc1c(=O)[nH]c(=O)nc-1n2CCOCc1cccc(F)c1 = 24

inhibition measured on CCc1cc2c(cc1Cl)nc1c(=O)[nH]c(=O)nc-1n2CCOCc1cccc(Br)c1 = 17

inhibition measured on Cc1cc2nc3c(=O)[nH]c(=O)nc-3n(C[C@H](O)[C@H](O)[C@H](O)CO)c2cc1N(C)C = 7

inhibition measured on CCc1cc2c(cc1Cl)nc1c(=O)[nH]c(=O)nc-1n2CC(C)(C)C = 62

inhibition measured on CCc1cc2c(cc1Cl)nc1c(=O)[nH]c(=O)nc-1n2CCCOc1ccc(C#N)cc1 = 25

inhibition measured on CCc1cc2c(cc1Cl)nc1c(=O)[nH]c(=O)nc-1n2CCOc1cccc(F)c1 = 17

inhibition measured on CCc1cc2c(cc1Cl)nc1c(=O)[nH]c(=O)nc-1n2CCCOc1cccc(C(F)(F)F)c1 = 19

---

# study_system: HAT1/Rbap46 (Homo sapiens, UniProt O14929+Q16576)
# Sequence (Q16576 whole entry): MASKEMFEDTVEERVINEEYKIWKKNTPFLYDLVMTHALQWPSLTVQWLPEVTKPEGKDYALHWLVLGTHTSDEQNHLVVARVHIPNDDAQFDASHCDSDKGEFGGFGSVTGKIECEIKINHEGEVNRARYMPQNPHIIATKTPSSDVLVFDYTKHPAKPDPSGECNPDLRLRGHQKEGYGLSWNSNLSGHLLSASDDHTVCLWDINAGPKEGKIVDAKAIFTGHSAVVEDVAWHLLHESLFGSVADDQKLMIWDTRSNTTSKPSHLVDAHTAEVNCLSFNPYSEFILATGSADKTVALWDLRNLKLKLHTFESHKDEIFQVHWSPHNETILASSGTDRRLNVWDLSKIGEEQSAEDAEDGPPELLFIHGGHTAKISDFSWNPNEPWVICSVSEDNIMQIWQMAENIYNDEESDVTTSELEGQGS
# Sequence (O14929 whole entry): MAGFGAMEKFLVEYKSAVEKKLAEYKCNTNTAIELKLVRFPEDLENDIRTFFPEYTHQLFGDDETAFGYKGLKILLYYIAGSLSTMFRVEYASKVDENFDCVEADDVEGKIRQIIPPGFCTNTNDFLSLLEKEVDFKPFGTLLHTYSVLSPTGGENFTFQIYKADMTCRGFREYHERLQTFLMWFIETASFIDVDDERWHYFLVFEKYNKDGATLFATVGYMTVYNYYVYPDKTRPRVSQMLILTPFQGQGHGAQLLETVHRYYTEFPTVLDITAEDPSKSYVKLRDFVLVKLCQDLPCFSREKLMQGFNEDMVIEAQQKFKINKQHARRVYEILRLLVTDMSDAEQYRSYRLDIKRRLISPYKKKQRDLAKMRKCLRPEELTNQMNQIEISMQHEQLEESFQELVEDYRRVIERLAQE
# test_method_notes: Inhibition of C-terminal FLAG tagged full length human HAT1/Rbap46 transfected in HEK293F cells using histone H4 peptide as substrate and 4-pentynoyl-CoA as cofactor preincubated for 10 mins followed by 4-pentynoyl-CoA addition and measured after 1 hr by amplex red dye based fluorescence analysis
In this section we review reported IC50 values for a set of compounds.
API: value field is a number in µM; no unit string.

Observed IC50 on HAT1/Rbap46 (Homo sapiens, UniProt O14929+Q16576), entry O=c1nc2n(CC(O)C(O)C(O)C(O)CO)c3cc(Cl)c(Cl)cc3nc-2c(=O)[nH]1 (configuration not stated) , equals 62.6

Observed IC50 on HAT1/Rbap46 (Homo sapiens, UniProt O14929+Q16576), entry CCCC(=O)OC[C@@H](OC(=O)CCC)[C@@H](OC(=O)CCC)[C@H](Cn1c2nc(=O)[nH]c(=O)c-2nc2cc(C)c(C)cc21)OC(=O)CCC , equals 17
